The measured values listed here are drawn from ChEMBL document CHEMBL3871280.

# Test system: Enterococcus
# Procedure summary: Antibacterial activity against vancomycin-resistant Enterococcus
# Type: functional
Kindly state MIC for each of the entries shown.

Recall the recorded MIC for `C/C(=N\NC(=N)N)c1cccc(/C(C)=N/NC(=N)N)c1.Cl.Cl` with Enterococcus and state it.
125 µM

Recall the recorded MIC for CC1COc2c(N3CCN(C)CC3)c(F)cc3c(=O)c(C(=O)O)cn1c23 (centres undefined) with Enterococcus and state it.
7.8 µM

Recall the recorded MIC for `Cl.N=C(N)N/N=C/c1ccc(-c2ccc(/C=N/Nc3ccc(Cl)cc3)cc2)cc1` with Enterococcus and state it.
3.9 µM

Read the next record carefully.
Recall the recorded MIC for `C/C(=N\NC(=N)N)c1ccc(CCc2ccc(/C(C)=N/NC(=N)N)cc2)cc1.Cl.Cl` with Enterococcus and state it.
1 µM

====

# Tested on: Acinetobacter baumannii
# Procedure summary: Antibacterial activity against Acinetobacter baumannii ATCC 19606
# Assay type: functional
Kindly state MIC for each of the entries shown.
Give bare numbers, in µM.

Could you share which MIC value was measured for `C/C(=N\NC(=N)N)c1ccc2c(c1)Cc1cc(/C(C)=N/NC(=N)N)ccc1-2.Cl.Cl` ?
500

Read the next record carefully.
Could you share which MIC value was measured for `C/C(=N\NC(=N)N)c1ccc(Oc2ccc(/C(C)=N/NC(=N)N)cc2)cc1.Cl.Cl` ?
62.5

====

Kindly state MIC for each of the entries shown.
# System: Listeria monocytogenes
# Procedure summary: Antibacterial activity against Listeria monocytogenes ATCC 19115
# Type: functional
Give bare numbers, in µM.

Could you share which MIC value was measured for `C/C(=N\NC(=N)N)c1ccc(Oc2ccc(/C(C)=N/NC(=N)N)cc2)cc1.Cl.Cl` ?
62.5

Could you share which MIC value was measured for `C/C(=N\NC(=N)N)c1ccc(CCc2ccc(/C(C)=N/NC(=N)N)cc2)cc1.Cl.Cl` ?
1

Could you share which MIC value was measured for `C/C(=N\NC(=N)N)c1ccc(/C(C)=N/NC(=N)N)cc1` ?
250

Could you share which MIC value was measured for `C/C(=N\NC(=N)N)c1ccc(Cc2ccc(/C(C)=N/NC(=N)N)cc2)cc1.Cl.Cl` ?
3.9

Read the next record carefully.
Could you share which MIC value was measured for `Cl.N=C(N)N/N=C/c1ccc(-c2ccc(/C=N/Nc3ccc(Cl)cc3)cc2)cc1` ?
3.9

====

# System: Acinetobacter baumannii
# Procedure summary: Antibacterial activity against Acinetobacter baumannii ATCC 19606
# Type: functional
Result type: MIC

The cases that follow already have their MIC on record.
Could you share which MIC value was measured for `Cl.N=C(N)N/N=C/c1ccc(-c2ccc(/C=N/Nc3ccc(Cl)cc3)cc2)cc1` ?
> 500 µM

Could you share which MIC value was measured for `C/C(=N\NC(=N)N)c1ccc(-c2ccc(/C(C)=N/NC(=N)N)cc2)cc1.Cl.Cl` ?
> 500 µM

Could you share which MIC value was measured for `Cl.Cl.N=C(N)N/N=C/c1ccc(-c2ccc(/C=N/NC(=N)N)cc2)cc1` ?
> 500 µM

Could you share which MIC value was measured for `Cl.N#Cc1ccc(N/N=C/c2ccc(-c3ccc(/C=N/NC(=N)N)cc3)cc2)cc1` ?
15.6 to 31.3 µM

Could you share which MIC value was measured for `C/C(=N\NC(=N)N)c1ccc(Cc2ccc(/C(C)=N/NC(=N)N)cc2)cc1.Cl.Cl` ?
> 500 µM

Continuing:
Could you share which MIC value was measured for `C/C(=N\NC(=N)N)c1ccc(CCc2ccc(/C(C)=N/NC(=N)N)cc2)cc1.Cl.Cl` ?
> 500 µM
